Recorded values, source BigSolDB 2.1.

conditions: in transcutol, 298.2 K
Parameter: solubility (mole fraction)

INSERT INTO assay_data (record_smiles, value_observed) VALUES
  ('COc1c(C)c2c(c(O)c1C/C=C(\C)CCC(=O)OCCN1CCOCC1)C(=O)OC2', 0.0393);

###

settings: in transcutol, 303.2 K
Parameter: solubility (mole fraction)

INSERT INTO results (record_smiles, parameter, value_observed) VALUES
  ('COc1c(C)c2c(c(O)c1C/C=C(\C)CCC(=O)OCCN1CCOCC1)C(=O)OC2', 'solubility (mole fraction)', 0.0421);

###

conditions: in n-butanol, 298.2 K
Parameter: solubility (mole fraction)

INSERT INTO assay_data (record_smiles, value_observed) VALUES
  ('COc1c(C)c2c(c(O)c1C/C=C(\C)CCC(=O)OCCN1CCOCC1)C(=O)OC2', 0.0108);
